system: Micrococcus luteus; assay: Antimicrobial activity against Micrococcus luteus UFPEDA 06 after 20 hrs by twofold serial dilution technique; format: functional; settings: UFPEDA 06, 20 h

| molecule | tested.on | units.label | MIC |
| --- | --- | --- | --- |
| O=C1NC(=S)/C(=C/c2ccc(Cl)cc2)S1 | Micrococcus luteus | µg/mL | 32 |
| O=C1NC(=S)/C(=C/c2c(Cl)cccc2Cl)S1 | Micrococcus luteus | µg/mL | 16 |
| O=C1NC(=S)/C(=C/c2ccccc2Br)S1 | Micrococcus luteus | µg/mL | 16 |
| O=C1NC(=S)/C(=C/c2cc(Cl)cc(Cl)c2Cl)S1 | Micrococcus luteus | µg/mL | 4 |
| O=C1NC(=S)/C(=C/c2cccc(Br)c2)S1 | Micrococcus luteus | µg/mL | 8 |
| O=C1NC(=S)/C(=C/c2cccc(F)c2)S1 | Micrococcus luteus | µg/mL | 16 |
| O=C1NC(=S)/C(=C/c2ccccc2Cl)S1 | Micrococcus luteus | µg/mL | 16 |
| O=C1NC(=S)/C(=C/c2cccc(Cl)c2)S1 | Micrococcus luteus | µg/mL | 8 |
| O=C1NC(=S)/C(=C/c2ccccc2F)S1 | Micrococcus luteus | µg/mL | 32 |
| O=C1NC(=S)/C(=C/c2ccc(Cl)cc2Cl)S1 | Micrococcus luteus | µg/mL | 8 |
| O=C1NC(=S)/C(=C/c2ccc(F)cc2)S1 | Micrococcus luteus | µg/mL | 16 |
